Readings of Time for the listed compounds
test system: Spodoptera litura; assay: Antifeedant activity in Spodoptera litura third-instar larvae assessed as larval duration time after 24 hrs by leaf disk method (reference value: 10.1 +/- 0.1 day); type: functional; also: test concentration or dose not given here
Expressed in days, but write only the number.

Hello, please tell me recorded Time for this one: CC1(C)C[C@@H](O)[C@]2(C)CC[C@]3(C)C(=CC[C@@H]4[C@@]5(C)CCC(=O)[C@](C)(CO)[C@@H]5CC[C@]43C)[C@@H]2C1 11.1

Hello, please tell me recorded Time for this one: C[C@@H]1C[C@H]([C@H](O)C(C)(C)O)O[C@H]2O[C@H](O)[C@@]3(C)[C@@H]4CC[C@H]5C(C)(C)[C@@H](O[C@@H]6OC[C@@H](O)[C@H](O)[C@H]6O)CC[C@@]56C[C@@]46CC[C@]3(C)[C@H]21 11.8
